test system: NCI-H1581; experiment: cells; type: functional, cell-based, Homo sapiens; settings: nci-h1581;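 note: cell growth inhibition read out by a viability assay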
Description: SANGER: Inhibition of human NCI-H1581 cell growth in a cell viability assay.
reported-property: pIC50
Here pIC50 is given on a logarithmic scale as minus log10 of the concentration in mol/L.

In: Value lookup for pIC50; key = `BLEOMYCIN`
Out: 3.96

====

test system: UACC-812; experiment: cells; format: functional, cell-based, Homo sapiens; conditions: Homo sapiens, UACC-812
Description: SANGER: Inhibition of human UACC-812 cell growth in a cell viability assay.
pIC50: −log10 of the molar value.
reported-property: pIC50

In: Value lookup for pIC50; key = COc1cccc2c1C(=O)c1c(O)c3c(c(O)c1C2=O)C[C@@](O)(C(=O)CO)C[C@@H]3O[C@H]1C[C@H](N)[C@H](O)[C@H](C)O1 [DOXORUBICIN]
Out: < 5.99
